TARGET_UNDER_TEST: inactive BoNT/G (BoNT/Gi) (Clostridium botulinum) (UniProt Q60393)
Sequence (Q60393 whole entry): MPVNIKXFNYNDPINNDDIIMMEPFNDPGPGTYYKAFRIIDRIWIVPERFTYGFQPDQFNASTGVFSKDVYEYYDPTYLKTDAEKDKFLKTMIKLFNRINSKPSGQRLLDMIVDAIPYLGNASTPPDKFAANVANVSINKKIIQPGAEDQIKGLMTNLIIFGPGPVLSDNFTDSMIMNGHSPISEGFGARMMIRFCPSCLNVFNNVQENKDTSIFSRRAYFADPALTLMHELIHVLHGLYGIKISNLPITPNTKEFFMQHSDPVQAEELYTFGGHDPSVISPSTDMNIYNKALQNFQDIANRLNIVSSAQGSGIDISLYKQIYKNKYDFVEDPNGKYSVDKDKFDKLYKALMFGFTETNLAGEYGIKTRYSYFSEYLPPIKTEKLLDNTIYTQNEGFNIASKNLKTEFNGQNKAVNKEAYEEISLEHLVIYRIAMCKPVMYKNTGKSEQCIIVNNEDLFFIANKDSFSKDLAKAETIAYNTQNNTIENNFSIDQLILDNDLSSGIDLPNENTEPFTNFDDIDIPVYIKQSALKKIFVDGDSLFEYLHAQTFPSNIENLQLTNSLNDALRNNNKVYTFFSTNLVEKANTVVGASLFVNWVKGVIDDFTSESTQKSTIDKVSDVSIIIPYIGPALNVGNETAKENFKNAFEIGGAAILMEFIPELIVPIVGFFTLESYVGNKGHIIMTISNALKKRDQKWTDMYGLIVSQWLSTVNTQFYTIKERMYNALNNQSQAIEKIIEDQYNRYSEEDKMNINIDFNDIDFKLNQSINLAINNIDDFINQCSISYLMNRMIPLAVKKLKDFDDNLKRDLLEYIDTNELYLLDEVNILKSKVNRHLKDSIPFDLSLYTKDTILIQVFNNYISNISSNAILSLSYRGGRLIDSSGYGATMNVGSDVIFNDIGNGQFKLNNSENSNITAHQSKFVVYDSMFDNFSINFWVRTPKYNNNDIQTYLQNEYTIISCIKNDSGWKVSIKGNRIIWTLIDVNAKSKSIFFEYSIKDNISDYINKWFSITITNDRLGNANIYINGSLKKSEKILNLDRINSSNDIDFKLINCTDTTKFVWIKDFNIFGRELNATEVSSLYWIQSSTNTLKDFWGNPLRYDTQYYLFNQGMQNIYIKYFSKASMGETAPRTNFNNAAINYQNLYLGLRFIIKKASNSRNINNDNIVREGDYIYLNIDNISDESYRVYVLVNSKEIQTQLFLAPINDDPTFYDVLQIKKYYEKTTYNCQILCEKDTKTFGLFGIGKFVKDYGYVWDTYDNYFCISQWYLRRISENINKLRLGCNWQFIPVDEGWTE
PROTOCOL_NOTES: flow cytometry, scFv on yeast
pKd: −log10 of the molar value.

BINDER: hu6G6.1 scFv (scFv) scFv: QVQLVQSGAEVKKPGASVKLSCKASGFNIKDTYMHWVRQAPGQGLEWIGRIDPENGNTKYDPKFQGRATITAYKSINTAYLELSRLRSDDTAVYYCASGPNYYGTTWFAYWGQGTTVTVSSVDLKSGGSTSGSGKPGSGEGSSGSAREIVLTQSPSTLSASVGDRVTITCRASHGISNYLAWYQQKPGRAPKLLIYKASTLHIGVPSRFSGSGSGTEFALTISSLQPDDFSTYYCQQYNSYLPHTFGQGTRLEIK
pKd: 8.37
//
BINDER: hu6G6 scFv (scFv) scFv: QVQLVQSGAEVKKPGASVKLSCKASGFNIKDTYMHWVRQAPGQGLEWIGRIDPANGNTKYDPKFQGRATITADTSINTAYLELSRLRSDDTAVYYCASGPNYYGTTWFAYWGQGTTVTVSSVDLKSGGSTSGSGKPGSGEGSSGSAREIVLTQSPSTLSASVGDRVTITCRASHGISNYLAWYQQKPGRAPKLLIYKASTLHIGVPSRFSGSGSGTEFALTISSLQPDDFSTYYCQQYNSYLPHTFGQGTRLEIK
pKd: 7.63
//
BINDER: hu6G9 scFv (scFv) scFv: QVQLVQSGAEVKKPGASVKMSCKASGYTFTSYWMHWVRQAPGQGLEWIGYINPSTGYTEYNQKFKDRATLTADKSTSTAYMELRSLRSDDTAVYYCARGGNYVDYWGQGTTLTVSSVDLKSGGSTSGSGKPGSGEGSSGSARDIQMTQSPSTLSASVGERVTITCRASQGISSWLAWYQQKPGKAPKRLIYAVSTLQTGVPSRFSGSGSGTDLTLTINSLQPEDFATYYCQHLNSYPLTFGGGTKVEIK
pKd: 7.73
//
BINDER: hu6G9B10 scFv (scFv) scFv: QVQLVQSGAEVKKPGASVKMSCKASGYTFTSYWMHWVRQAPGQGLEWIGYINPSTGYTEYNQKFKDRATLTADKSTSTAYMELRSLRSDDTAVYYCARGGNYVDYWGQGTTLTVSSVDLKSGGSTSDSGKPGSGEGSSGSARDIQMTQSPSTLSASVGERVTITCRASQDISSWLAWYQQKPGKAPKRLIYAVSTLQTGVPSRFSGSGSGTDLTLTINSLQPEDFATYYCQDLNSYPLTFGGGTKVEVK
pKd: 8.63
